Target Or Test System: G12D-mutant human KRAS (amino acid residues 1-188) (Homo sapiens, UniProt P01116, G12D)
Construct: G12D or G12C-mutant human KRAS (amino acid residues 1-188) with FLAG tag; made in house; host or cells: E. coli
Sequence (P01116 1-188 isoform P01116-2 G12D): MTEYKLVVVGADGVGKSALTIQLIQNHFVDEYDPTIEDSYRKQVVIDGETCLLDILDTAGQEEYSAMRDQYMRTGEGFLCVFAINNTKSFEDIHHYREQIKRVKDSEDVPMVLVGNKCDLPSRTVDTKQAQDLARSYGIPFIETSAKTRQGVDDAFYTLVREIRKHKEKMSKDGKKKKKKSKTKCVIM
Measurement Notes: KRAS Binding Disruption Assay (AlphaScreen; biotinylated KRpep-2d analogue or RAF1-RBD), G12D
Condition Context: KRAS G12D; geometric mean; read-out: KRAS GMean IC50 (uM) MUTATION: G12D
Value Kind: IC50

INSERT INTO measurements (structure_smiles_string, value_kind, experimental_result) VALUES
  ('Fc1ccc2[nH]cc(-c3ccc4c(N5C[C@H]6CC[C@@H](C5)N6)nc(OCC56CCCN5CCC6)nc4c3F)c2c1Cl', 'IC50', '0.0001 to 10 µM'),
  ('CN1CCC[C@H]1COc1nc(N2C[C@H]3CC[C@@H](C2)N3)c2cc(F)c(-c3c[nH]c4ncccc34)c(F)c2n1', 'IC50', '10 to 100 µM'),
  ('Oc1cc(-c2ccc3c(N4C[C@H]5CC[C@@H](C4)N5)nc(OCC4CCCCC4)nc3c2F)c2ccccc2c1', 'IC50', '0.0001 to 10 µM'),
  ('O=C(NC1CNC1)N1[C@@H]2CC[C@H]1CN(c1nc(OCC34CCCN3CCC4)nc3cc(-c4cc(O)cc5ccccc45)ccc13)C2', 'IC50', '0.0001 to 10 µM'),
  ('CN(C)C1(C(N)=O)CN(c2nc(N3C[C@H]4CC[C@@H](C3)N4)c3ccc(-c4cc(O)cc5ccccc45)c(F)c3n2)C1', 'IC50', '0.0001 to 10 µM'),
  ('Cc1[nH]c2ccccc2c1-c1ccc2c(N3C[C@H]4CC[C@@H](C3)N4)nc(OCC34CCCN3CCC4)nc2c1F', 'IC50', '0.0001 to 10 µM'),
  ('CONC(=O)N1C[C@H]2CC[C@@H](C1)N2c1nc(OC[C@@H]2CCCN2C)nc2cc(-c3cc(O)cc4ccccc34)ccc12', 'IC50', '10 to 100 µM');

----------
Readings of IC50 for the listed molecules
Target Or Test System: G12D-mutant human KRAS (amino acid residues 1-188) (Homo sapiens, UniProt P01116, G12D)
Construct: G12D or G12C-mutant human KRAS (amino acid residues 1-188) with FLAG tag; made in house; host or cells: E. coli
Measurement Notes: KRAS Binding Disruption Assay (AlphaScreen; biotinylated KRpep-2d analogue or RAF1-RBD), G12D
Condition Context: KRAS G12D; geometric mean; read-out: KRAS GMean IC50 (uM) MUTATION: G12D
Value Kind: IC50

INSERT INTO measurements (molecule, target_or_test_system, experimental_result) VALUES
  ('Oc1cc(-c2ccc3c(N4C[C@H]5CC[C@@H](C4)N5)nc(N4CC5(CCNC5)C4)nc3c2F)c2ccccc2c1', 'G12D-mutant human KRAS (amino acid residues 1-188) (Homo sapiens, UniProt P01116, G12D)', '0.0001 to 10 µM'),
  ('CN(C)c1ccc(CCc2nc(N3C[C@H]4CC[C@@H](C3)N4)c3cc(Cl)c(-c4c(O)cccc4F)c(F)c3n2)cc1', 'G12D-mutant human KRAS (amino acid residues 1-188) (Homo sapiens, UniProt P01116, G12D)', '0.0001 to 10 µM'),
  ('OCCCN1[C@@H]2CC[C@H]1CN(c1nc(OCC34CCCN3CCC4)nc3c(F)c(-c4cc(O)cc5ccccc45)ccc13)C2', 'G12D-mutant human KRAS (amino acid residues 1-188) (Homo sapiens, UniProt P01116, G12D)', '0.0001 to 10 µM'),
  ('CN1CCC[C@H]1COc1nc(N2C[C@H]3CC[C@@H](C2)N3)c2ccc(-c3cccc4ccccc34)cc2n1', 'G12D-mutant human KRAS (amino acid residues 1-188) (Homo sapiens, UniProt P01116, G12D)', '0.0001 to 10 µM'),
  ('CN1CCC[C@H]1COc1nc(N2[C@@H]3CC[C@H]2CN(C(=O)Cc2cnn(C)c2)C3)c2ccc(-c3cc(O)cc4ccccc34)cc2n1', 'G12D-mutant human KRAS (amino acid residues 1-188) (Homo sapiens, UniProt P01116, G12D)', '10 to 100 µM'),
  ('CN1CCC[C@H]1COc1nc(N2C[C@H]3CC[C@@H](C2)N3)c2ccc(-c3nc(N)cc4cccnc34)c(F)c2n1', 'G12D-mutant human KRAS (amino acid residues 1-188) (Homo sapiens, UniProt P01116, G12D)', '10 to 100 µM'),
  ('CN1CCC[C@H]1COc1nc(N2[C@@H]3CC[C@H]2CNC3)c2ccc(-c3c(Cl)cccc3Cl)cc2n1', 'G12D-mutant human KRAS (amino acid residues 1-188) (Homo sapiens, UniProt P01116, G12D)', '10 to 100 µM'),
  ('Oc1cc(-c2ccc3c(N4C[C@H]5CC[C@@H](C4)N5)nc(NCC4(O)CCC4)nc3c2F)c2ccccc2c1', 'G12D-mutant human KRAS (amino acid residues 1-188) (Homo sapiens, UniProt P01116, G12D)', '0.0001 to 10 µM'),
  ('O=C(N[C@H]1CC[C@H](O)C1)N1[C@@H]2CC[C@H]1CN(c1nc(OCC34CCCN3CCC4)nc3cc(-c4cc(O)cc5ccccc45)ccc13)C2', 'G12D-mutant human KRAS (amino acid residues 1-188) (Homo sapiens, UniProt P01116, G12D)', '0.0001 to 10 µM'),
  ('Oc1cc(-c2ccc3c(C4=C[C@@H]5CC[C@H](C4)N5)nc(OCC45CCCN4CCC5)nc3c2)c2ccccc2c1', 'G12D-mutant human KRAS (amino acid residues 1-188) (Homo sapiens, UniProt P01116, G12D)', '0.0001 to 10 µM'),
  ('Oc1cc(-c2ccc3c(N4C[C@H]5CC[C@@H](C4)N5)nc(OCC4CC4(F)F)nc3c2F)c2ccccc2c1 (stereo partly drawn)', 'G12D-mutant human KRAS (amino acid residues 1-188) (Homo sapiens, UniProt P01116, G12D)', '0.0001 to 10 µM'),
  ('Nc1cc(-c2c(F)cc3c(N4C[C@H]5CC[C@@H](C4)N5)nc(OCC45CCCN4CCC5)nc3c2F)ccc1Cl', 'G12D-mutant human KRAS (amino acid residues 1-188) (Homo sapiens, UniProt P01116, G12D)', '10 to 100 µM'),
  ('CN1CCC[C@H]1COc1nc(N2C[C@H]3CC[C@@H](C2)N3C(=O)C2CCC(=O)N2)c2ccc(-c3cc(O)cc4ccccc34)c(F)c2n1 (stereo partly drawn)', 'G12D-mutant human KRAS (amino acid residues 1-188) (Homo sapiens, UniProt P01116, G12D)', '0.0001 to 10 µM'),
  ('Cc1cccc2cc(O)cc(-c3ccc4c(N5C[C@H]6CC[C@@H](C5)N6)nc(OCC56CCCN5CCC6)nc4c3F)c12', 'G12D-mutant human KRAS (amino acid residues 1-188) (Homo sapiens, UniProt P01116, G12D)', '0.0001 to 10 µM'),
  ('CN1CCC[C@H]1COc1nc(N2[C@@H]3CC[C@H]2CN(C(=O)NC2CCN(C4CCCCC4)C2)C3)c2ccc(-c3cc(O)cc4ccccc34)cc2n1 (stereo partly drawn)', 'G12D-mutant human KRAS (amino acid residues 1-188) (Homo sapiens, UniProt P01116, G12D)', '10 to 100 µM'),
  ('N#Cc1cccc2[nH]cc(-c3ccc4c(N5C[C@H]6CC[C@@H](C5)N6)nc(OCC56CCCN5CCC6)nc4c3F)c12', 'G12D-mutant human KRAS (amino acid residues 1-188) (Homo sapiens, UniProt P01116, G12D)', '0.0001 to 10 µM'),
  ('CN1CCCC1COc1nc(N2C[C@H]3CC[C@@H](C2)N3C(=O)NC2CCN(C3CCCCC3)C2)c2ccc(-c3cc(O)cc4ccccc34)c(F)c2n1 (stereo partly drawn)', 'G12D-mutant human KRAS (amino acid residues 1-188) (Homo sapiens, UniProt P01116, G12D)', '0.0001 to 10 µM'),
  ('CC(C)(O)COc1nc(N2C[C@H]3CC[C@@H](C2)N3)c2ccc(-c3cc(O)cc4ccccc34)c(F)c2n1', 'G12D-mutant human KRAS (amino acid residues 1-188) (Homo sapiens, UniProt P01116, G12D)', '0.0001 to 10 µM'),
  ('Oc1cc(-c2ccc3c(N4C[C@H]5CC[C@@H](C4)N5)nc(OCC45CCCN4CCC5)nc3c2Cl)c2ccccc2c1', 'G12D-mutant human KRAS (amino acid residues 1-188) (Homo sapiens, UniProt P01116, G12D)', '0.0001 to 10 µM'),
  ('CN1CCC[C@H]1COc1nc(N2C[C@H]3CC[C@@H](C2)N3C(=O)CC(N)=O)c2ccc(-c3cc(O)cc4ccccc34)c(F)c2n1', 'G12D-mutant human KRAS (amino acid residues 1-188) (Homo sapiens, UniProt P01116, G12D)', '0.0001 to 10 µM'),
  ('CN(CC(C)(C)CO)c1nc(N2C[C@H]3CC[C@@H](C2)N3)c2ccc(-c3cc(O)cc4ccccc34)c(F)c2n1', 'G12D-mutant human KRAS (amino acid residues 1-188) (Homo sapiens, UniProt P01116, G12D)', '10 to 100 µM'),
  ('Oc1cc(-c2ccc3c(N4C[C@H]5CC[C@@H](C4)N5)nc(OCC4CCOCC4)nc3c2F)c2ccccc2c1', 'G12D-mutant human KRAS (amino acid residues 1-188) (Homo sapiens, UniProt P01116, G12D)', '0.0001 to 10 µM'),
  ('CN1CCC[C@H]1COc1nc(N2[C@@H]3CC[C@H]2CN(CC(O)CO)C3)c2ccc(-c3cc(O)cc4ccccc34)cc2n1 (stereo partly drawn)', 'G12D-mutant human KRAS (amino acid residues 1-188) (Homo sapiens, UniProt P01116, G12D)', '0.0001 to 10 µM'),
  ('CN(C)CCOc1nc(N2C[C@H]3CC[C@@H](C2)N3)c2ccc(-c3cc(O)cc4ccccc34)cc2n1', 'G12D-mutant human KRAS (amino acid residues 1-188) (Homo sapiens, UniProt P01116, G12D)', '0.0001 to 10 µM'),
  ('Cc1cccc2cc(O)cc(-c3c(F)cc4c(N5C[C@H]6CC[C@@H](C5)N6)nc(OC[C@@H]5CCCN5C)nc4c3F)c12', 'G12D-mutant human KRAS (amino acid residues 1-188) (Homo sapiens, UniProt P01116, G12D)', '0.0001 to 10 µM'),
  ('Fc1c(-c2c[nH]c3cccc(C(F)(F)F)c23)ccc2c(N3C[C@H]4CC[C@@H](C3)N4)nc(OCC34CCCN3CCC4)nc12', 'G12D-mutant human KRAS (amino acid residues 1-188) (Homo sapiens, UniProt P01116, G12D)', '0.0001 to 10 µM'),
  ('CN1CCC[C@H]1COc1nc(N2[C@@H]3CC[C@H]2CN(C(=O)C(O)CO)C3)c2ccc(-c3cc(O)cc4ccccc34)cc2n1 (stereo partly drawn)', 'G12D-mutant human KRAS (amino acid residues 1-188) (Homo sapiens, UniProt P01116, G12D)', '10 to 100 µM');
